experimental_target: SNX27 PDZ (amino acids 740–141) (human, UniProt Q96L92 43-136)
protocol_details: fluorescence polarisation
experimental_parameters: both partners purified
pKd: −log10 of the molar value. No end group written: not given here.
measured_quantity: pKd

stdin: Record request: pKd value, item SADAQSFLNGFAV (also: FITC-labeled) [FITC-labeled peptide NSP11 4393-4405 of SARS-CoV-2]
stdout: < 3.40
